# target-of-assay: T1, ERα-pT594-strep (ERαLBD-F-strep phosphorylated in vitro by PKA) (human (from the printed UniProt entry), UniProt P03372 302-595, S305A | F591R | P592R, phosphothreonine at T594)
# T1 construct: also called ERα(PKA)-pT594-strep; phosphorylated ERα; source: E. coli NiCo21 (DE3), phosphorylated in vitro with His-PKA-strep and ATP, purified (Ni-NTA, Strep-Tactin, SEC); not shown: His tag, N-terminal, cleaved; SUMO, N-terminal, cleaved; strep-tag, C-terminal, kept
# T1 sequence (looked up): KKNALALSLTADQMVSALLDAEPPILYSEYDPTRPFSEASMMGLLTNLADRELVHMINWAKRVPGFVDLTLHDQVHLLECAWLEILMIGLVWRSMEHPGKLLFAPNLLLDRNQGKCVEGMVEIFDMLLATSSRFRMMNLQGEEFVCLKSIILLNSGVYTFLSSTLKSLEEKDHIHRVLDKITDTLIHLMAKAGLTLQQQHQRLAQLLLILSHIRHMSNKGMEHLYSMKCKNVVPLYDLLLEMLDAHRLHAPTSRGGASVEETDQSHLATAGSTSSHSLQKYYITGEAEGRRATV
# method-summary: fluorescence polarisation; as a10 but in the presence of 100 μM E2; apparent KD
# measurement-parameters: both partners purified
Where no end group is shown, it is not given here.
measurement-name: Kd (nM)
The reply should be a number in nM, with the unit left off.

Q: Look at this binder and give its reported Kd. LTERHKILHRLLQEGSPSD (also: fluorescein (FITC) label, position not given here) [fluorescein-labeled SRC-1 cofactor peptide (LXXLL motif of SRC-1/NCoA-1)]
Result: 1000
